- tested-system: T1, human MSLN protein endogenously expressed on OVCAR3 tumor cells (human, UniProt Q13421 296-598)
- T1 construct: whole, on cells; endogenous expression on a tumor cell line; also called human mesothelin
- T1 sequence (Q13421 other isoform, or with tags, fused parts or gaps): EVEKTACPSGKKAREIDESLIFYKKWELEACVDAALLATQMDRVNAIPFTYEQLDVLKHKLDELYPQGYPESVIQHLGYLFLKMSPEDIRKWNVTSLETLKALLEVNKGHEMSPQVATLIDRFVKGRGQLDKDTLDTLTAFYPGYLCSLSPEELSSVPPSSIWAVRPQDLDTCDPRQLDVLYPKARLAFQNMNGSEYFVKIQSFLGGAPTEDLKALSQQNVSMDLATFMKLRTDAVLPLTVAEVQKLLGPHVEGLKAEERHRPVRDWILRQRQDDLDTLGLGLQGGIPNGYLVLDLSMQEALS
- assay-name: FACS on OVCAR3 cells;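 also: flow cytometry of chimeric antibody binding to OVCAR3 cells, 2 h on ice, read as cellular mean fluorescence intensity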
Below, each entry is listed with its recorded EC50.
I only need the number, in nM, no unit after it.

INSERT INTO measurements (binder, measurement_label, result_value) VALUES
  ('S009-F8-22.23 (antibody, human IgG1, kappa, V domains shown, human-murine chimeric antibody, human IgG1/kappa constant regions) VH: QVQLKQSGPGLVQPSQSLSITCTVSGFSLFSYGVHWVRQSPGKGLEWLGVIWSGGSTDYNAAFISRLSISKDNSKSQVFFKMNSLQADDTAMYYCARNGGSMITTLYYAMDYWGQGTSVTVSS VL: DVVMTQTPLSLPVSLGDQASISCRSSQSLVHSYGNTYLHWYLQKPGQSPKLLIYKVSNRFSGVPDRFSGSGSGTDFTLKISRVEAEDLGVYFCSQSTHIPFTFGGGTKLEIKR', 'EC50', 12.8),
  ('S009-F8-27.1 (antibody, human IgG1, kappa, V domains shown, human-murine chimeric antibody, human IgG1/kappa constant regions) VH: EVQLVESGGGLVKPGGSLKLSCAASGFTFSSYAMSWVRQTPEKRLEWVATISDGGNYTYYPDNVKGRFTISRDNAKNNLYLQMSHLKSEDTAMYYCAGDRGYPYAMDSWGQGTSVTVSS VL: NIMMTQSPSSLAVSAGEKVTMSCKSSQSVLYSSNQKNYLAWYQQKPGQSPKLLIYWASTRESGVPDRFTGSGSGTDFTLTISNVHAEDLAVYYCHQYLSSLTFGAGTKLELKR', 'EC50', 77.9),
  ('S009-F8-7.5 (antibody, human IgG1, kappa, V domains shown, human-murine chimeric antibody, human IgG1/kappa constant regions) VH: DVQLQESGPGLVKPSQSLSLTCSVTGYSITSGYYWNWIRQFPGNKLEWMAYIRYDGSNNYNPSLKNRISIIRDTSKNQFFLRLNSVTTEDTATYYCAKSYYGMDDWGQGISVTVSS VL: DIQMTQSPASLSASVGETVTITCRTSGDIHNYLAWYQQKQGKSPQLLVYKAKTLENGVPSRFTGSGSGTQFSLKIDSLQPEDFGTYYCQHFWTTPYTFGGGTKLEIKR', 'EC50', 0.71),
  ('S009-F8-28.23 (antibody, human IgG1, kappa, V domains shown, human-murine chimeric antibody, human IgG1/kappa constant regions) VH: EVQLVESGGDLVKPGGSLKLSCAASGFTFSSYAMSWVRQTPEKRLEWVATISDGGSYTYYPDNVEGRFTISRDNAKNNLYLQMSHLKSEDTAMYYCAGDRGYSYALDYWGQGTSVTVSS VL: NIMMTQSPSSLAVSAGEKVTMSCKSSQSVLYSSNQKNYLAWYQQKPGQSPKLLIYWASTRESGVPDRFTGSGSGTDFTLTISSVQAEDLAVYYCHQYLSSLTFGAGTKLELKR', 'EC50', 59.8);

Next:
Prompt line: Need EC50, item S009-F8-13.8 (antibody, human IgG1, kappa, V domains shown, human-murine chimeric antibody, human IgG1/kappa constant regions) VH: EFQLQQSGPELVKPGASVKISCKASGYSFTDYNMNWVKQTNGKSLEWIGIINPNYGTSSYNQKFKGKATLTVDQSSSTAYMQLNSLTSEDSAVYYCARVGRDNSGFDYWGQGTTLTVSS VL: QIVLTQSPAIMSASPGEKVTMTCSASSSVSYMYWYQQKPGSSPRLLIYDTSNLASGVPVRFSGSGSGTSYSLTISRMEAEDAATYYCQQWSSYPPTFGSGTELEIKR
Response line: 1.42

Reference for the values: patent US20250250357A1
